TESTED TARGET: T1, wildtype feline IL-31 protein (Feline_IL31_wildtype) (feline)
T1 construct: Full length feline IL-31 with C-terminal His tag, secreted from ExpiCHO cells; also called fIL-31
T1 chain: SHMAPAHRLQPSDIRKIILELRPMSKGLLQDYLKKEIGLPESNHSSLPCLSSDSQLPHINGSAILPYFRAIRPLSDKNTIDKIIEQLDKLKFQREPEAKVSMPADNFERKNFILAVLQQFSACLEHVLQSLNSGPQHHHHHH
ASSAY NAME: SPR (Biacore), IL-31 on chip, 1:1 fit
QUANTITY MEASURED: koff (s⁻¹)

>  <BINDER>
Feline 15H05 1.1 (antibody, V domains shown, Feline heavy and kappa constant regions) VH: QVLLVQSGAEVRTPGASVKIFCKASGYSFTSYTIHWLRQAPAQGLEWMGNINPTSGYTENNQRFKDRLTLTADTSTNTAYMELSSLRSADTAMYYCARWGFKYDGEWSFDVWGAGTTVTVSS VL: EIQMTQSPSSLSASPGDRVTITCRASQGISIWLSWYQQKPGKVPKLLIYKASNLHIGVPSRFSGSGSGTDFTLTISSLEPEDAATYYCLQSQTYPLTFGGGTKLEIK

>  <MEASURED>
0.00131

$$$$
>  <BINDER>
Feline 15H05 VH2 mouse VL (antibody, V domains shown, also called felinized 15H05 VH2 with mouse 15H05 VL (heterochimera)) VH: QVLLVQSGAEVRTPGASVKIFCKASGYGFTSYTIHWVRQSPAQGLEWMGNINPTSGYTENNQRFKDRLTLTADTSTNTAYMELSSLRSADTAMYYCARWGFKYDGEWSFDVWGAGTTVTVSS VL: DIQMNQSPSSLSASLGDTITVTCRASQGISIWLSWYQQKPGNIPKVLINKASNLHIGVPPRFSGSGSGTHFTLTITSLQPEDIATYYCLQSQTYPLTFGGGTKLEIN

>  <MEASURED>
5.47e-05

$$$$
>  <BINDER>
Feline 15H05 VH1 mouse VL (antibody, V domains shown, Heterochimeric antibody; also called felinized 15H05 VH1 with mouse 15H05 VL (heterochimera)) VH: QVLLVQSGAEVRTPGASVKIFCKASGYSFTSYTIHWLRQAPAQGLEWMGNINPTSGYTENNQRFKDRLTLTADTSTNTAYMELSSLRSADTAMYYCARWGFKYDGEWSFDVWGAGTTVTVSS VL: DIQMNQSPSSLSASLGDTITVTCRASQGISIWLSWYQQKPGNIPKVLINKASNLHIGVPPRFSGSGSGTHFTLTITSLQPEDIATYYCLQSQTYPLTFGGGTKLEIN

>  <MEASURED>
2.2e-05

$$$$

Recorded values, source patent US20250136677A1.
